Data origin, for the record: ChEMBL document CHEMBL1781890

Experimental endpoint: pIC50
Recall that pIC50 is obtained by taking minus log10 of the concentration measured in molar.

Please tell me the measured pIC50 for Oc1c(Br)cc(Br)cc1-c1[nH]c(Br)c(Br)c1Br ; system: Unconventional myosin-Va (Gallus gallus). 5.92

====

Assay: Inhibition of Dictyostelium discoideum myosin 1b ATPase activity by spectrophotometric analysis
Experimental endpoint: pIC50
pIC50 here: minus log base 10 of the concentration, concentration in moles per litre.

Quickly give me recorded pIC50 for Oc1c(Cl)cc(Cl)cc1-c1[nH]c(Cl)c(Cl)c1Cl 6.00
